Data provenance: patent US20260193326A1

# MEASUREMENT TARGET: AAV8 (adeno-associated virus serotype 8)
# EXPERIMENTAL PROTOCOL: SPR, AAV on CM5 chip
// reported koff per item
Number in s⁻¹, nothing else.

A4-C9 (bispecific antibody) VQLQESGGGLVQPGGSLRLSCAASGSNFSINTMGWYRQAPGKQRELVATVTRGGDTNYADSVKGRFTISRDNAKNTVYLQMNSLRPEDTAVYYCHVDEIRESSWTTSNLWGQGTQVTVSSGGGGSGGGGSGGGGSVQLQESGGGLVQPGGSLRLSCAASGSNFSINTMGWYRQAPGKQRELVAALTRGGSTNYADSVKGRFTISRDNAKNTVYLQMNSLRPEDTAVYYCHVDEVRESSWTTSNLWGQGTQVTVSSGGGGSGGGGSGGGGSVQLQESGGGLVQPGGSLRLSCAASGSNFRINTMGWYRQAPGKQRELVAPVTRGGSTNYADSVKGRFTISRDNAKNTVYLQMNSLRPEDTAVYYCHVDEVRESSWTTSNLWGQGTQVTVSS :: 0.00013
A4-C8 (bispecific antibody) VQLQESGGGLVQPGGSLRLSCAASGSNFRINTMGWYRQAPGKQRELVAPVTRGGSTNYADSVKGRFTISRDNAKNTVYLQMNSLRPEDTAVYYCHVDEVRESSWTTSNLWGQGTQVTVSSGGGGSGGGGSGGGGSVQLQESGGGLVQPGGSLRLSCAASGSNFSINTMGWYRQAPGKQRELVATVTRGGDTNYADSVKGRFTISRDNAKNTVYLQMNSLRPEDTAVYYCHVDEIRESSWTTSNLWGQGTQVTVSSGGGGSGGGGSGGGGSVQLQESGGGLVQPGGSLRLSCAASGSNFSINTMGWYRQAPGKQRELVAALTRGGSTNYADSVKGRFTISRDNAKNTVYLQMNSLRPEDTAVYYCHVDEVRESSWTTSNLWGQGTQVTVSS :: 0.00037
A4-C3 (bispecific antibody) VQLQESGGGLVQPGGSLRLSCAASGSIFSINLMGWYRQAPGKQRELVATITRGGNTNYAGSVKGRFTISRDNAKNTVYLQMNSLRPEDTAVYYCHVDEVRQSSWTTSNLWGQGTQVTVSSGGGGSGGGGSGGGGSVQLQESGGGLVQPGGSLRLSCAASGSIFSINLMGWYRQAPGKQRELVATITRGGNTNYAGSVKGRFTISRDNAKNTVYLQMNSLRPEDTAVYYCHVDEVRQSSWTTSNLWGQGTQVTVSSGGGGSGGGGSGGGGSVQLQESGGGLVQPGGSLRLSCAASGSNFRINTMGWYRQAPGKQRELVATVTRGGSTNYADSVKGRFTISRDNPKDTVYLQMNSLRPEDTAVYYCHVDEVRESSWTTSNLWGQGTQVTVSS :: 4e-05
A4-B2 (bispecific antibody) VQLQESGGGLVQAGGSLRLSCAASGSRFSINTMGWYRQAPGKQREFVATVTRGGNTNYAESVKGRFTISRDNAKNTVYLQMNSLRPEDTAVYYCHVDEVRDSSWTTSNIWGQGTQVTVSSGGGGSGGGGSGGGGSVQLQESGGGLVQAGGSLRLSCAASGSTFSINTMGWYRQAPGKQRELVATITRGGNTNYADSVKGRFTISRDNAKNTVYLQMNSLRPEDTAVYYCHVDEVRQSSWTTSNLWGQGTQVTVSS :: 0.00014

# ---- query binder ----
Request: Suppose we examine the binder A4-C4 (bispecific antibody) VQLQESGGGLVQAGGSLRLSCAASGSRFSINTMGWYRQAPGKQREFVATVTRGGNTNYAESVKGRFTISRDNAKNTVYLQMNSLRPEDTAVYYCHVDEVRDSSWTTSNIWGQGTQVTVSSGGGGSGGGGSGGGGSVQLQESGGGLVQAGGSLRLSCAASGSRFSINTMGWYRQAPGKQREFVATVTRGGNTNYAESVKGRFTISRDNAKNTVYLQMNSLRPEDTAVYYCHVDEVRDSSWTTSNIWGQGTQVTVSSGGGGSGGGGSGGGGSVQLQESGGGLVQPGGSLRLSCAASGSNFRINTMGWYRQAPGKQRELVATVTRGGSTNYADSVKGRFTISRDNPKDTVYLQMNSLRPEDTAVYYCHVDEVRESSWTTSNLWGQGTQVTVSS ; what koff value has been reported?
Result: 0.00025
